Data origin, for the record: ChEMBL document CHEMBL3988442

# Test system: Wolbachia pipientis
# EXPERIMENTAL_PROTOCOL: Anti-Wolbachia Cell-Based Screen
# Type: functional
# Parameters: scale not given: in the data most compounds retested in dose-response had high values
# APPLIED_CONDITIONS: 5 µM
Out of some 48,000 compounds screened, about 13,000 (27%) showed an effect of 50% or more. The list shows a part of the results.
Exercise: state measured Percent Effect for each of the molecules provided.
The answer is to be given in %; state only the numeric part.

# Percent Effect of CCN(C)S(=O)(=O)NC(C)c1cnc(N(C)C2CCCCC2)nc1C (stereo unspecified) = -0.2104

# Percent Effect of CN(c1nccc(-c2cnc3sc(Cl)cn3c2=O)n1)C1CCCCC1 = 110

# Percent Effect of Cc1n[nH]c(C)c1CNc1ccc(-c2nc(C3CC3)no2)cn1 = 9.439

# Percent Effect of CN1CCN(CC2(O)CCN(C(=O)CCc3ccccc3F)C2)CC1 (stereo unspecified) = 132.9

# Percent Effect of O=c1c(-c2ccnc(NC3CCCCC3)n2)cnc2sc(Cl)cn12 = 123.9

# Percent Effect of O=c1c(-c2ccnc(NC3CCOCC3)n2)cnc2sc(Cl)cn12 = -8.128

# Percent Effect of COCCC(=O)N1CCC2(CCN(Cc3cccc(F)c3)C2)C1 (stereo unspecified) = 0.08604

# Percent Effect of COC(=O)CCC(=O)N1CCC2(CN(Cc3ccccc3F)C2)C1 = 106.8

# Percent Effect of COc1ccnc(NC2CCN(CC(=O)N3CCCC3)CC2)n1 = -3.698

# Percent Effect of Cc1nnc([C@H]2C[C@H]3CN(C(=O)Cc4ccc(F)cc4)CC[C@@H]3O2)o1 = -15.1

# Percent Effect of CN(c1nccc(-c2cnc3sccn3c2=O)n1)C1CCCCC1 = 92.84

----------
# Tested on: Wolbachia pipientis
# EXPERIMENTAL_PROTOCOL: Anti-Wolbachia Cell-Based Screen
# Format: functional
# Design: scale not given: in the data most compounds retested in dose-response had high values
# APPLIED_CONDITIONS: 5 µM
In all, about 48,000 compounds went through this assay and about 13,000 (27%) showed an effect of 50% or more. This is one part of the list.
Exercise: state measured Percent Effect for each of the molecules provided.
The answer is to be given in %; state only the numeric part.

# Percent Effect of Cc1ccc(C(=O)NC2CCN(C(C)C)C2)c(=O)[nH]1 (stereo unspecified) = 89.09

# Percent Effect of CC(C)N1CCC(NC(=O)NCCC(=O)NCc2ccccc2)C1 (stereo unspecified) = -0.958

# Percent Effect of CCn1c(N)nc2cc(C(=O)N3CCN(c4ccncc4)CC3)cnc21 = -2.234

# Percent Effect of Cn1cc(C(=O)Nc2cccc(-c3ccc4c(c3)CCO4)n2)ccc1=O = 14

# Percent Effect of Cc1ccc(CC(=O)NCC(O)c2ccc(Cl)cc2Cl)cn1 (stereo unspecified) = -14.52

# Percent Effect of Cc1ccc(C(=O)Nc2cc(C(C)C)n[nH]2)cn1 = -1.048

# Percent Effect of CCc1nc(C)c(C(=O)NCCNc2cnccn2)s1 = 1.537

# Percent Effect of CC(C)NC[C@@]1(COc2ccccc2)C[C@@H](O)[C@@H](O)C1.Cl = 3.998

# Percent Effect of N#Cc1cccc(Cl)c1NCCCc1nc(=O)[nH][nH]1 = -19.22

# Percent Effect of CC(C)c1cc(NC(=O)c2ccc([S+]([O-])C(C)C)cc2)[nH]n1 (stereo unspecified) = 112.1

# Percent Effect of Cc1onc(N)c1S(=O)(=O)N1CCCCC1C (stereo unspecified) = -5.745

----------
Exercise: state measured Percent Effect for each of the compounds provided.
# Tested on: Wolbachia pipientis
# EXPERIMENTAL_PROTOCOL: Anti-Wolbachia Cell-Based Screen
# Format: functional
# Design: scale not given: in the data most compounds retested in dose-response had high values
# APPLIED_CONDITIONS: 5 µM
Out of some 48,000 compounds screened, about 13,000 (27%) showed an effect of 50% or more. The list shows a part of the results.
The answer is to be given in %; state only the numeric part.

# Percent Effect of COCC(=O)N1CCC2(CCCN(Cc3cnn(C)c3)C2)C1 (centres undefined) = 0.82

# Percent Effect of CC(C)OCCC(=O)NCCC(=O)N1CCN(c2ccccn2)CC1 = 105.6

# Percent Effect of CCc1nc(CC(=O)NC(C#N)CC(C)C)cs1 (centres undefined) = 0.9973

# Percent Effect of Cc1csc(N2CCN(C(=O)CCNc3ncccn3)CC2)n1 = -3.8

# Percent Effect of CCc1ccsc1C(=O)NC(Cc1ccccc1)C(N)=O (centres undefined) = 1.098

# Percent Effect of O=C(CNCC1(O)CCCN(Cc2cccc(F)c2F)C1=O)NC1CC1 (centres undefined) = -1.283

# Percent Effect of CN(C)[C@@H]1CO[C@H](CNC(=O)c2ccccc2)[C@H]1O = 9.178

# Percent Effect of COc1cc(N2C[C@H]3CN(CC(=O)N(C)C)C(=O)[C@H]3C2)ncn1 = -6.391

# Percent Effect of O=C(NC(C(=O)Nc1cc[nH]n1)c1ccccc1)C1CCC1 (centres undefined) = -26.62

# Percent Effect of COCC(=O)N1CCCC(C)(c2nncn2C)C1 (centres undefined) = 100.7

# Percent Effect of CCS(=O)(=O)c1ccc(N2CCC(N)CC2)cc1 = -6.106

# Percent Effect of Cc1cc(CNC(=O)CCN2CCN(c3ccccn3)CC2)c(C)o1 = -14.14

# Percent Effect of CCC(C#N)NC(=O)c1sccc1OC (centres undefined) = 86.18

# Percent Effect of CN1C(Cn2cccn2)C[C@@H]2CN(Cc3cnn(C)c3)CC[C@@H]21 (some centres undefined) = 88.14

# Percent Effect of O=C(NCCN1CCCCCC1=O)NCc1ccc(Cl)s1 = -3.851

# Percent Effect of Cc1nc(-c2ccccc2)sc1CSCCC(N)=O = 7.014

# Percent Effect of CCCN1CCN(Cc2cccc(OC)c2)[C@H]2CS(=O)(=O)C[C@H]21 = -4.68

# Percent Effect of O=C(NCCn1ccnc1)C1(c2ccc3c(c2)OCCO3)CCCC1 = 33.12

# Percent Effect of COc1ccsc1C(=O)Nc1cc(Br)c(=O)n(C)c1 = -2.156

# Percent Effect of CC(C)COCCC(=O)NCCC(=O)N1CCN(c2ccccn2)CC1 = 140.4

# Percent Effect of CC(C)N1[C@H](CN2CCCC2)C[C@@H]2CN(Cc3cnn(C)c3)CC[C@@H]21 = 1.544

# Percent Effect of CN1C(Cn2cccn2)C[C@@H]2CN(Cc3nccs3)CC[C@@H]21 (some centres undefined) = 108

# Percent Effect of CCN(Cc1ccc(CN(C)C)cc1)C(=O)c1ccncc1O = 4.477

# Percent Effect of Cc1ccc(-n2ccc3nc(N4CCCC4)ncc3c2=O)cc1C = -4.635

----------
# System: Wolbachia pipientis
# EXPERIMENTAL_PROTOCOL: Anti-Wolbachia Cell-Based Screen
# Format: functional
# Set-up: scale not given: in the data most compounds retested in dose-response had high values
# APPLIED_CONDITIONS: 5 µM
The campaign covered roughly 48,000 compounds. About 13,000 (27%) showed an effect of 50% or more. The list shows a part of the results.
Exercise: state measured Percent Effect for each of the compounds provided.
The answer is to be given in %; state only the numeric part.

# Percent Effect of CC(=O)Nc1ccc(CNC(=O)CNCc2sc(C)nc2C)cc1 = -27.38

# Percent Effect of Cn1c(C2CC2)nc2c1CCN(CCOc1ccc(C#N)cc1)C2 = -1.848

# Percent Effect of COc1ccc(CCN2CCC(N3CCN(C)C3=O)CC2)cc1 = -2.52

# Percent Effect of O=C(c1ccon1)N1CCc2ncnc(NCc3cccnc3)c2CC1 = -8.818

# Percent Effect of CN1CCN(C2CCN(Cc3noc(-c4ccccc4)n3)CC2)C1=O = -0.9175

# Percent Effect of CN1CCN(C2CCN(CCOc3ccccc3F)CC2)C1=O = 107.7

# Percent Effect of CN1CC(Nc2nc3c(cnn3C(C)(C)C)c(=O)[nH]2)CCC1=O (configuration not stated) = 10.78

# Percent Effect of Cc1ccc(-c2cnnc(NCC3CCOCC3)n2)o1 = -4.072

# Percent Effect of CN1CCN(C2CCN(CCOc3ccccc3)CC2)C1=O = 94.15

# Percent Effect of CN1CCN(C2CCN(CCCOc3ccc(F)cc3)CC2)C1=O = 81.83

# Percent Effect of CN1CCN(C2CCN(C(C(N)=O)c3ccccc3)CC2)C1=O (configuration not stated) = -3.145

# Percent Effect of Cc1ccc(CN(C)C(=O)c2cc3c(c(S(N)(=O)=O)c2)CCC3)o1 = -13.85
